# SRIF Antagonist IC50s (nM) against U-II Stimulation of Rat Aorta Phasic Contractions per record follows
MEASURED_ON: T1, U-II receptors (rat thoracic aorta tissue) (rat, UniProt P49684 1-386)
T1 sequence (looked up): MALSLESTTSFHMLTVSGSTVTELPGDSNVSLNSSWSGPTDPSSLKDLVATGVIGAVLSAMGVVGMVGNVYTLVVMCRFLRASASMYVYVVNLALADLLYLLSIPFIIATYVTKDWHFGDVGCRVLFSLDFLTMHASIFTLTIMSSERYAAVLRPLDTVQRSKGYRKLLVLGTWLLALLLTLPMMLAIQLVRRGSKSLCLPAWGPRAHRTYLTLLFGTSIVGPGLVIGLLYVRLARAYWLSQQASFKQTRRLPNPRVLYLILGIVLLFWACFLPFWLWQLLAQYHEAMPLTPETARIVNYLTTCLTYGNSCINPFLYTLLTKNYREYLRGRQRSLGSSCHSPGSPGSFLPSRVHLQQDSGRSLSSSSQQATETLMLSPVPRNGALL
TEST_DETAILS: cell-based or functional assay
Bridge positions count the residues as written; N and C are the ends. Square brackets hold non-standard residues; d marks the D form. Ends that are not written are not given here. dDip = N[C@@H](C(=O)O)C(c1ccccc1)c1ccccc1; Phe(4-Cl) = N[C@@H](Cc1ccc(Cl)cc1)C(=O)O; Phe(4-F) = N[C@@H](Cc1ccc(F)cc1)C(=O)O; 3Pal = N[C@@H](Cc1cccnc1)C(=O)O; Tle = CC(C)(C)[C@H](N)C(=O)O; Nal = naphthylalanine
Numbers only here, please. The scale is nM.

>  <BINDER>
[Nal][dC]H[dW]KVC[dDip]-NH2 (disulfide 2-7 (inferred)) [Nal-D-Cys-His-D-Trp-Lys-Val-Cys-D-Dip-NH2]

>  <RECORDED_NUMBER>
1800

$$$$
>  <BINDER>
[Phe(4-F)][dC][3Pal][dW]K[Tle]C[Nal]-NH2 (disulfide 2-7 (inferred)) [4Fpa-D-Cys-Pal-D-Trp-Lys-Tle-Cys-Nal-NH2]

>  <RECORDED_NUMBER>
100

$$$$

For the binder shown here, XXYXKTCX (Cpa (p-chlorophenylalanine) at 1; D-Cys at 2; D-Trp at 4; Nal (naphthylalanine) at 8; C-terminal amide) [Cpa-D-Cys-Tyr-D-Trp-Lys-Thr-Cys-Nal-NH2] , give the reported SRIF Antagonist IC50s (nM) against U-II Stimulation of Rat Aorta Phasic Contractions.
12

Which SRIF Antagonist IC50s (nM) against U-II Stimulation of Rat Aorta Phasic Contractions reading was recorded for the binder [Phe(4-Cl)][dC][3Pal][dW]K[Tle]C[Nal]-NH2 (disulfide 2-7 (inferred)) [Cpa-D-Cys-Pal-D-Trp-Lys-Tle-Cys-Nal-NH2] ?
10

What SRIF Antagonist IC50s (nM) against U-II Stimulation of Rat Aorta Phasic Contractions value was documented for this binder, [Phe(4-Cl)][dC][3Pal]WKTC[Phe(4-Cl)]-NH2 (disulfide 2-7 (inferred)) [Cpa-D-Cys-Pal-Trp-Lys-Thr-Cys-Cpa-NH2] ?
2

Returns the measured SRIF Antagonist IC50s (nM) against U-II Stimulation of Rat Aorta Phasic Contractions for the input binder. Input: [Phe(4-F)][dC][3Pal][dW]KVC[Nal]-NH2 (disulfide 2-7 (inferred)) [4Fpa-D-Cys-Pal-D-Trp-Lys-Val-Cys-Nal-NH2]
1090

Taken from patent US20070287665A1.
